Test system: microglial cells
Assay: Inhibition of microglial migration evoked by ATP
Assay type: cell-based
Settings: read-out: IC50, low affinity component
Method: FIG. 8 is a series of images confirming NAGH acts as a sigma receptor agonist. A) Concentration-response relationship for NAGH (closed circles) and DTG (open circles) inhibition of microglial migration evoked by 100 μM ATP. […] Points represent mean (±SEM) and for all points, n>9. B) Bar graph of the mean (±SEM) number of microglial cells migrating in response to 100 μM ATP when ATP was added alone (DMEM) or in the presence of 100 μM NAGH. […]
Exercise: state measured pIC50 for each of the compounds provided.
Keep in mind that pIC50 stands for -log10 of concentration in molar terms.

Query: What value of pIC50 on microglial cells does Cl.N=C(Nc1cccc2ccccc12)Nc1cccc2ccccc12 [NAGH, hydrochloride] have?
Result: 4.08

Query: What value of pIC50 on microglial cells does Cc1ccccc1NC(=N)Nc1ccccc1C [DTG, 1,3-di-o-tolylguanidine, reference compound] have?
Result: 4.10
